test system: DU145; test: in vitro screen against human tumor cell line DU-145 (prostate), GI50; assay type: cell-based; details: Homo sapiens, DU-145, Example 2, Table 2, 12-aza-antofines; read-out: GI50 DU145
Quantity Kind: GI50 (µM)
Express your answer in µM, writing the number without its unit.

Q: Given the compound COc1ccc2c3c(c4cc(OC)c(OC)cc4c2c1)CC1CN(Cc2ccccc2)CN1C3 (stereo in doubt) [Compound 3j, (R)-12-aza-12N-benzyl-antofine] , what is its reported GI50?
Result: 4.62

Q: Given the compound COc1ccc2c3c(c4cc(OC)c(OC)cc4c2c1)C[C@H]1CN(C2CC2)CN1C3 [Compound 3g, (S)-12-aza-12N-cyclopropyl-antofine] , what is its reported GI50?
Result: 3.7

Q: Given the compound COc1ccc2c3c(c4cc(OC)c(OC)cc4c2c1)C[C@H]1CN(CCO)CN1C3 [Compound 3e, (S)-12-aza-12N-hydroxylethyl-antofine] , what is its reported GI50?
Result: 6.36

Q: Given the compound CCCN1C[C@@H]2Cc3c(c4ccc(OC)cc4c4cc(OC)c(OC)cc34)CN2C1 [Compound 3c, (S)-12-aza-12N-propyl-antofine] , what is its reported GI50?
Result: 7.38

---

Quantity Kind: melting point

Q: Given the molecule COc1ccc2c3c(c4cc(OC)c(OC)cc4c2c1)C[C@H]1CN(CCO)CN1C3 [Compound 3e, (S)-12-aza-12N-hydroxylethyl-antofine] , what is its reported melting point?
Result: 210 to 212 °C

Q: Given the molecule COc1ccc2c3c(c4cc(OC)c(OC)cc4c2c1)CC1CN(Cc2ccccc2)CN1C3 (stereo in doubt) [Compound 3j, (R)-12-aza-12N-benzyl-antofine] , what is its reported melting point?
Result: 95 to 97 °C

Q: Given the molecule COc1ccc2c3c(c4cc(OC)c(OC)cc4c2c1)C[C@H]1CCN(CCO)CN1C3 [Compound 11a] , what is its reported melting point?
Result: 138 to 140 °C

---

test system: DU145; assay: in vitro screen against human tumor cell line DU-145 (prostate), GI50; format: cell-based; conditions: read-out: GI50 DU145
Quantity Kind: log10 GI50 (log10 of the value in µM)
// stored as log10 of GI50 expressed in µM

Q: Given the molecule COc1ccc2c3c(c4cc(OC)c(OC)cc4c2c1)C[C@H]1CN(S(C)(=O)=O)CCN1C3 [Compound 8e] , what is its reported log10 GI50?
Result: 1.23

Q: Given the molecule COC1=C[C@@H]2Cc3c(c4ccc(OC)cc4c4cc(OC)c(OC)cc34)CN2C1 [Compound 7, (S)-12-methoxy-antofine-12-ene] , what is its reported log10 GI50?
Result: 1.01

Q: Given the molecule COc1ccc2c(c1)c1c(c3cc(OC)c(OC)cc32)C[C@H]2CCN(C3CC3)CN2C1 [Compound 11e] , what is its reported log10 GI50?
Result: 1.16

Q: Given the molecule COc1ccc2c3c(c4cc(OC)c(OC)cc4c2c1)C[C@H]1CNCCN1C3.Cl.Cl [Compound 8a, dihydrochloride] , what is its reported log10 GI50?
Result: 0.32

Q: Given the molecule COc1ccc2c3c(c4cc(OC)c(OC)cc4c2c1)C[C@H]1CCCCN1C3 [R-cryptopleurine, reference compound] , what is its reported log10 GI50?
Result: -2.80
